Recorded Remaining Percentage (%) after 60 min Mouse by entry
TEST_METHOD_NOTES: Liver microsomes stability, mouse
COND: with NADPH, 2 μM, 0.5 mg/mL microsomes
PARAMETER_MEASURED: Remaining Percentage (%) after 60 min Mouse

molecule="CN(C)CCc1c[nH]c2cccc(O)c12 [Psilocin, 4-hydroxy-N,N-dimethyltryptamine, reference compound]" endpoint_result=96.89
molecule="[2H]C([2H])([2H])N(C([2H])([2H])[2H])C([2H])([2H])C([2H])([2H])c1c[nH]c2cccc(OC(=O)CCCCCCC/C=C\\C/C=C\\CCCCC)c12 [Compound I-28]" endpoint_result=8.12
molecule="[2H]C([2H])([2H])N(C([2H])([2H])[2H])C([2H])([2H])C([2H])([2H])c1c[nH]c2cccc(O)c12 [Compound I-45]" endpoint_result=84.40
molecule="[2H]C([2H])([2H])N(C([2H])([2H])[2H])C([2H])([2H])C([2H])([2H])c1c[nH]c2cccc(OCc3ccccc3)c12 [Compound I-46]" endpoint_result=44.75
